The reported measurements were obtained from PubChem BioAssay AID1159580.

Procedure Text: chemical genetic growth profiling, strain panel (AID 1159580);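 also: tested at 20 µM; growth read once vehicle control cultures reached saturation at 30 °C; 1 = growth at the plate median or of vehicle wells; lower values mean less growth of the strain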
Study Conditions: S. cerevisiae deletion strains, growth OD, locus YNL067W, strain RPL9B, active compounds read low
Hit rate of the full screen: of about 5,500 compounds, about 2,000 (36%) were called active. Another 18% or so got no clear call; they are omitted. The list shows a part of the results.
normalized growth less than 1 is Fulfilled; normalized growth greater than or equal to 1 is Not fulfilled.

| Compound | Label |
| --- | --- |
| CC1=C2C(O)C(=O)OC3CC4C(C)(C)C(=O)C=C[C@]4(C)C(CC1)[C@]23C (stereo partly specified) | Not fulfilled |
| COc1ccc(-c2cc(=O)c3c(O)cc(O)cc3o2)cc1 | Fulfilled |
| COc1ccc(-c2cc(=O)c3c(O)c(OC)c(OC)cc3o2)cc1O | Fulfilled |
| O=C(/C=C(\O)c1ccccc1)c1ccccc1O | Fulfilled |
| COC1=CC(C)[C@@H]2C[C@H]3OC(=O)C[C@H]4C(C)=C(OC)C(=O)C([C@@]34C)[C@@]2(C)C1=O (stereo partly specified) | Not fulfilled |
| COc1cc(O)c2c(=O)cc(-c3ccc(O)cc3)oc2c1 | Not fulfilled |

====

Procedure Text: chemical genetic growth profiling, strain panel (AID 1159580)
Study Conditions: S. cerevisiae deletion strains, growth OD, locus YHR200W, strain rpn10, active compounds read low
Hit rate of the full screen: of about 5,500 compounds, about 2,000 (36%) were called active. Inconclusive results (about 18%) are left out. This is one part of the list.
Listed here are molecules together with their documented normalized growth.
Assay Endpoint: normalized growth

| Smiles Str | Assay Result |
| --- | --- |
| COc1cc(C)c2c(=O)c3c(O)cc(OC)cc3oc2c1 | 0.975 |
| COc1ccc(-c2cc(=O)c3c(O)cc(O)c(-c4cc(-c5cc(=O)c6c(O)cc(O)cc6o5)ccc4OC)c3o2)cc1 | 1.01 |
| COc1cc(C)c2c(=O)c3c(O)cc(O)cc3oc2c1 | 0.904 |
| COc1cc(O)c2c(=O)cc(-c3ccc(OC)c(-c4c(O)cc(O)c5c(=O)cc(-c6ccc(O)cc6)oc45)c3)oc2c1 | 0.988 |

====

Procedure Text: chemical genetic growth profiling, strain panel (AID 1159580);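 also: tested at 20 µM; growth read once vehicle control cultures reached saturation at 30 °C; 1 = growth at the plate median or of vehicle wells; lower values mean less growth of the strain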
Study Conditions: S. cerevisiae deletion strains, growth OD, locus YDR334W, strain swr1, active compounds read low
The campaign covered roughly 5,500 compounds. About 2,000 (36%) were called active. Not shown: some 18% with an inconclusive outcome. The list shows a part of the results.

| Molecule | normalized growth |
| --- | --- |
| COC(=O)C[C@H]1C(C)(C)[C@@H](O)[C@@H]2CC3=C4CC(O)O[C@@H](c5ccoc5)[C@]4(C)CCC3[C@@]1(C)C2=O (stereo not given in full) | 1.03 |
| CCc1ccc2c(O)c3c(cc2c1C(=O)OC)C(=O)c1c(O)ccc(O)c1C3=O | 0.923 |
| CO[C@@H]1[C@@H](OC(N)=O)[C@@H](O)[C@H](Oc2ccc3c(O)c(NC(=O)c4ccc(O)c(CC=C(C)C)c4)c(=O)oc3c2C)OC1(C)C | 1.03 |
| CCC(=O)NCC[C@@H]1CCc2ccc3c(c21)CCO3 | 1 |
| COc1cc2c(cc1OC)-c1c(oc3cc(O)cc(O)c3c1=O)CO2 | 1.01 |
| CC1(C)S[C@@H]2[C@H](NC(=O)C(C(=O)O)c3ccccc3)C(=O)N2[C@H]1C(=O)O (stereo not given in full) | 0.926 |
| CC(C)C[C@@H](NC(=O)OCC1c2ccccc2-c2ccccc21)C(=O)O | 0.988 |
| O=C(Oc1ccccc1C(=O)O)c1ccccc1O | 0.942 |
| C[C@@H](CO)NC(=O)C1C=C2c3cccc4[nH]cc(c34)C[C@H]2N(C)C1 (stereo not given in full) | 1 |
| C=CCSC[C@@H](N)C(=O)O | 0.987 |
| CC(C)Nc1nc(Cl)nc(NC(C)C)n1 | 0.995 |
| CC1(C)O[C@@H]2CC3C4C[C@H](F)C5=CC(=O)CC[C@]5(C)C4[C@@H](O)C[C@]3(C)[C@]2(C(=O)CO)O1 (stereo not given in full) | 1.01 |
| O=c1c(O)cc([C@H]2Oc3cc(O)cc(O)c3C[C@H]2O)cc2c([C@H]3Oc4cc(O)cc(O)c4C[C@H]3O)cc(O)c(O)c12 | 1.03 |
| CC(=O)Oc1ccccc1C(=O)Oc1ccccc1C(=O)O | 1 |
| CC1(C)S[C@@H]2[C@H](NC(=O)[C@@H](N)c3ccc(O)cc3)C(=O)N2[C@H]1C(=O)O | 0.982 |
| CC(=O)OCC(=O)[C@@]1(O)CCC2C3C[C@H](C)C4=CC(=O)C=CC4(C)C3[C@@H](O)CC21C (stereo not given in full) | 1.02 |
| C=CCSSSCC=C | 0.966 |
| CC1=CC(=O)C2C(C)(C)CCC[C@]2(C)[C@@]1(O)CCc1ccoc1 (stereo not given in full) | 1.01 |
| CC(C)(C)NCC(O)COc1cccc2c1CCCC2=O (stereo not given) | 0.937 |
| CC1CCCC(C)N1NC(=O)c1ccc(Cl)c(S(N)(=O)=O)c1 (stereo not given) | 1.02 |

====

Procedure Text: chemical genetic growth profiling, strain panel (AID 1159580);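 also: tested at 20 µM; growth read once vehicle control cultures reached saturation at 30 °C; 1 = growth at the plate median or of vehicle wells; lower values mean less growth of the strain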
Study Conditions: S. cerevisiae deletion strains, growth OD, locus YMR129W, active compounds read low
The campaign covered roughly 5,500 compounds. About 2,000 (36%) were called active. Not shown: some 18% with an inconclusive outcome. The list shows a part of the results.

| Compound | normalized growth |
| --- | --- |
| CCC(=O)OCC(=O)C1(OC(=O)CC)C(C)CC2C3CCC4=CC(=O)C=CC4(C)C3(Cl)C(O)CC21C (stereo not drawn) | 0.976 |
| COC(=O)NC(=S)Nc1ccccc1NC(=S)NC(=O)OC | 0.98 |
| CC(=O)O[C@@H]1c2c(ccc3ccc(=O)oc23)OC(C)(C)[C@@H]1OC(=O)CC(C)C | 1 |
| Oc1ccc2c3c1OC1[C@@H](O)CC[C@@]4(O)[C@@H](C2)N(CC2CCC2)CC[C@]314 (stereo partly drawn) | 1 |
| COc1cc2c(cc1OC)-c1c(oc3cc(O)cc(O)c3c1=O)CO2 | 1.02 |
| O=C(/C=C(\O)c1ccccc1)c1ccccc1O | 0.847 |
| NC(=O)c1ccccc1O | 0.974 |
| O=C(O)c1ccccc1O | 0.971 |
| NC[C@H]1O[C@H](O[C@H]2[C@H](O)[C@@H](O[C@H]3O[C@H](CO)[C@@H](O)[C@H](N)[C@H]3O)[C@H](N)C[C@@H]2N)[C@H](N)[C@@H](O)[C@@H]1O | 0.99 |
| CC1(C)Oc2ccc3ccc(=O)oc3c2CC1O (stereo not drawn) | 0.966 |
| CCCCC(=O)O[C@]1(C(=O)CO)[C@@H](C)CC2C3CCC4=CC(=O)C=C[C@]4(C)[C@@]3(F)C(O)C[C@@]21C (stereo partly drawn) | 0.988 |
| COC1=CC(C)[C@@H]2C[C@H]3OC(=O)C[C@H]4C(C)=C(OC)C(=O)C([C@@]34C)[C@@]2(C)C1=O (stereo partly drawn) | 0.987 |
| CC1(C)C(O)CC(=O)C2(C)C1CC(O)C1(C)C2CCC2(C)C(c3ccoc3)OC(=O)C3OC321 (stereo not drawn) | 1.01 |
| CCC(=O)OCC(=O)[C@@]1(OC(=O)CC)[C@@H](C)CC2C3CCC4=CC(=O)C=C[C@]4(C)C3(F)[C@@H](O)C[C@@]21C (stereo partly drawn) | 0.99 |
| CCC(=O)O[C@]1(C(=O)CCl)[C@@H](C)CC2C3CCC4=CC(=O)C=C[C@]4(C)[C@@]3(F)[C@@H](O)C[C@@]21C (stereo partly drawn) | 1.02 |
| COc1ccc(-c2cc(=O)c3c(O)cc(O)c(-c4cc(-c5cc(=O)c6c(O)cc(O)cc6o5)ccc4OC)c3o2)cc1 | 1.01 |
| CCC(=O)NCC[C@@H]1CCc2ccc3c(c21)CCO3 | 0.985 |
| CCC(=O)OCC(=O)C1(OC(=O)CC)C(C)CC2C3C(Cl)CC4=CC(=O)C=CC4(C)C3C(O)CC21C (stereo not drawn) | 1.03 |

====

Procedure Text: chemical genetic growth profiling, strain panel (AID 1159580);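 also: tested at 20 µM; growth read once vehicle control cultures reached saturation at 30 °C; 1 = growth at the plate median or of vehicle wells; lower values mean less growth of the strain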
Study Conditions: S. cerevisiae deletion strains, growth OD, locus YGL167C, strain pmr1, active compounds read low
The whole screen tested about 5,500 compounds, of which about 2,000 (36%) were called active. Inconclusive results (about 18%) are left out. Some of the results follow.
normalized growth by entry:

| Molecule | normalized growth |
| --- | --- |
| COc1ccc(-c2cc(=O)c3c(O)cc(O)c(-c4cc(-c5cc(=O)c6c(O)cc(O)cc6o5)ccc4OC)c3o2)cc1 | 1.01 |
| CC(C)(C)NCC(O)COc1cccc2c1C[C@H](O)[C@H](O)C2 (some centres undefined) | 1 |
| CCn1nc(C(=O)O)c(=O)c2cc3c(cc21)OCO3 | 1.03 |
| C[C@H]1O[C@H](O[C@H]2[C@H](O)[C@@H](O)[C@@H](O[C@H]3[C@H](O)[C@@H](O)C(O)O[C@@H]3CO)O[C@@H]2CO)[C@H](O)[C@@H](O)[C@@H]1N[C@H]1C=C(CO)[C@@H](O)[C@H](O)[C@H]1O (some centres undefined) | 0.974 |
